Assay: Equilibrium solubility, saturation shake-flask, centrifugation as phase separation
Settings: Britton-Robinson buffer, 25 °C, pH 10, aqueous buffer, thermodynamic from solid, Equilibrium solubility S sed, pH 10.0; sedimented before centrifugation; 5000 rpm, 10 min
Structures can show the parent of a compound that is named as a salt.
MEASURED PROPERTY: solubility thermodynamic (µg/mL)

INSERT INTO assay_data (molecule, units_of_measure, recorded_measurement) VALUES
  ('COc1ccc(Cc2nccc3cc(OC)c(OC)cc23)cc1OC [PAP-HCL, papaverine hydrochloride]', 'µg/mL', 14.3);

###

Assay: Equilibrium solubility, saturation shake-flask, centrifugation as phase separation
Details: Britton-Robinson buffer, pH 7.4, Equilibrium solubility S sed, pH 7.4; sedimented before centrifugation; 5000 rpm, 20 min
MEASURED PROPERTY: solubility thermodynamic (µg/mL)

INSERT INTO measurements (molecular_string, recorded_measurement) VALUES
  ('CC(=O)[C@H]1CC[C@H]2[C@@H]3CCC4=CC(=O)CC[C@]4(C)[C@H]3CC[C@]12C', 11.5);

###

Experiment: Equilibrium solubility, saturation shake-flask, centrifugation as phase separation
Conditions: Britton-Robinson buffer, 25 °C, pH 3, aqueous buffer, thermodynamic from solid, Equilibrium solubility S sed, pH 3.0; sedimented before centrifugation; 10,000 rpm, 10 min
Counter-ions that a name gives are not always drawn.
MEASURED PROPERTY: solubility thermodynamic

INSERT INTO assay_data (compound, recorded_measurement) VALUES
  ('COc1ccc(Cc2nccc3cc(OC)c(OC)cc23)cc1OC [PAP-HCL, papaverine hydrochloride]', '40.9 mg/mL');

###

Test: Equilibrium solubility, saturation shake-flask, centrifugation as phase separation
Conditions: Britton-Robinson buffer, pH 10, Equilibrium solubility S stir, pH 10.0; continuously stirred, no sedimentation; 5000 rpm, 10 min
Structures can show the parent of a compound that is named as a salt.
MEASURED PROPERTY: solubility thermodynamic at 24 h (µg/mL)

INSERT INTO measurements (compound, recorded_measurement) VALUES
  ('COc1ccc(Cc2nccc3cc(OC)c(OC)cc23)cc1OC [PAP-HCL, papaverine hydrochloride]', 13.3),
  ('O=C(O)Cc1ccccc1Nc1c(Cl)cccc1Cl [DICL-NA, Diclofenac sodium]', 9810);

###

Assay: Equilibrium solubility, saturation shake-flask, centrifugation as phase separation
Conditions: Britton-Robinson buffer, pH 4, Equilibrium solubility S stir, pH 4.0; continuously stirred, no sedimentation; 5000 rpm, 20 min
MEASURED PROPERTY: solubility thermodynamic at 24 h (µg/mL)

INSERT INTO assay_data (compound, units_of_measure, recorded_measurement) VALUES
  ('O=C(O)Cc1ccccc1Nc1c(Cl)cccc1Cl [DICL-NA, Diclofenac sodium]', 'µg/mL', 2.58);

###

Assay: Equilibrium solubility, saturation shake-flask, centrifugation as phase separation
Conditions: Britton-Robinson buffer, pH 4, Equilibrium solubility S stir, pH 4.0; continuously stirred, no sedimentation; 5000 rpm, 5 min
MEASURED PROPERTY: solubility thermodynamic at 24 h (µg/mL)

INSERT INTO assay_data (compound, recorded_measurement) VALUES
  ('O=C(O)Cc1ccccc1Nc1c(Cl)cccc1Cl [DICL-NA, Diclofenac sodium]', 2.7);

###

Assay: Equilibrium solubility, saturation shake-flask, centrifugation as phase separation
Conditions: Britton-Robinson buffer, 25 °C, pH 10, aqueous buffer, thermodynamic from solid, Equilibrium solubility S stir, pH 10.0; continuously stirred, no sedimentation; 10,000 rpm, 20 min
Where a name gives a salt, the structure may show the parent alone.
MEASURED PROPERTY: solubility thermodynamic at 24 h (µg/mL)

INSERT INTO measurements (compound, recorded_measurement) VALUES
  ('O=C(O)Cc1ccccc1Nc1c(Cl)cccc1Cl [DICL-NA, Diclofenac sodium]', 11200),
  ('COc1ccc(Cc2nccc3cc(OC)c(OC)cc23)cc1OC [PAP-HCL, papaverine hydrochloride]', 28.7);

###

Experiment: Equilibrium solubility, saturation shake-flask, centrifugation as phase separation
Settings: Britton-Robinson buffer, pH 4, Equilibrium solubility S stir, pH 4.0; continuously stirred, no sedimentation; 10,000 rpm, 20 min
MEASURED PROPERTY: solubility thermodynamic at 24 h (µg/mL)

INSERT INTO assay_data (molecule, measured_property, recorded_measurement) VALUES
  ('O=C(O)Cc1ccccc1Nc1c(Cl)cccc1Cl [DICL-NA, Diclofenac sodium]', 'solubility thermodynamic at 24 h', 2.88);

###

Experiment: Equilibrium solubility, saturation shake-flask, centrifugation as phase separation
Settings: Britton-Robinson buffer, 25 °C, pH 3, aqueous buffer, thermodynamic from solid, Equilibrium solubility S stir, pH 3.0; continuously stirred, no sedimentation; 10,000 rpm, 20 min
Structures can show the parent of a compound that is named as a salt.
MEASURED PROPERTY: solubility thermodynamic at 24 h (mg/mL)

INSERT INTO assay_data (compound, recorded_measurement) VALUES
  ('COc1ccc(Cc2nccc3cc(OC)c(OC)cc23)cc1OC [PAP-HCL, papaverine hydrochloride]', 39.3);

###

Experiment: Equilibrium solubility, saturation shake-flask, centrifugation as phase separation
Conditions: Britton-Robinson buffer, pH 7.4, Equilibrium solubility S sed, pH 7.4; sedimented before centrifugation; 10,000 rpm, 20 min
MEASURED PROPERTY: solubility thermodynamic (µg/mL)

INSERT INTO results (compound, measured_property, recorded_measurement) VALUES
  ('CC(=O)[C@H]1CC[C@H]2[C@@H]3CCC4=CC(=O)CC[C@]4(C)[C@H]3CC[C@]12C [PROG, progesterone]', 'solubility thermodynamic', 12.4);

###

Test: Equilibrium solubility, saturation shake-flask, centrifugation as phase separation
Settings: Britton-Robinson buffer, pH 10, Equilibrium solubility S stir, pH 10.0; continuously stirred, no sedimentation; 5000 rpm, 20 min
Where a name gives a salt, the structure may show the parent alone.
MEASURED PROPERTY: solubility thermodynamic at 24 h (µg/mL)

INSERT INTO measurements (compound, measured_property, units_of_measure, recorded_measurement) VALUES
  ('COc1ccc(Cc2nccc3cc(OC)c(OC)cc23)cc1OC [PAP-HCL, papaverine hydrochloride]', 'solubility thermodynamic at 24 h', 'µg/mL', 16.9),
  ('O=C(O)Cc1ccccc1Nc1c(Cl)cccc1Cl [DICL-NA, Diclofenac sodium]', 'solubility thermodynamic at 24 h', 'µg/mL', 10700);

###

Test: Equilibrium solubility, saturation shake-flask, centrifugation as phase separation
Settings: Britton-Robinson buffer, pH 7.4, Equilibrium solubility S stir, pH 7.4; continuously stirred, no sedimentation; 10,000 rpm, 5 min
MEASURED PROPERTY: solubility thermodynamic at 24 h

INSERT INTO measurements (molecular_string, measured_property, recorded_measurement) VALUES
  ('CC(=O)[C@H]1CC[C@H]2[C@@H]3CCC4=CC(=O)CC[C@]4(C)[C@H]3CC[C@]12C', 'solubility thermodynamic at 24 h', '11 µg/mL');

###

Test: Equilibrium solubility, saturation shake-flask, centrifugation as phase separation
Details: Britton-Robinson buffer, pH 2, Equilibrium solubility S stir, pH 2.0; continuously stirred, no sedimentation; 5000 rpm, 20 min
MEASURED PROPERTY: solubility thermodynamic at 24 h (µg/mL)

INSERT INTO results (compound, measured_property, recorded_measurement) VALUES
  ('O=C(O)Cc1ccccc1Nc1c(Cl)cccc1Cl [DICL-NA, Diclofenac sodium]', 'solubility thermodynamic at 24 h', 1.71);

###

Experiment: Equilibrium solubility, saturation shake-flask, centrifugation as phase separation
Settings: Britton-Robinson buffer, 25 °C, pH 6.4, aqueous buffer, thermodynamic from solid, Equilibrium solubility S sed, pH 6.4; sedimented before centrifugation; 5000 rpm, 10 min
Where a name gives a salt, the structure may show the parent alone.
MEASURED PROPERTY: solubility thermodynamic (µg/mL)

INSERT INTO assay_data (compound, units_of_measure, recorded_measurement) VALUES
  ('COc1ccc(Cc2nccc3cc(OC)c(OC)cc23)cc1OC [PAP-HCL, papaverine hydrochloride]', 'µg/mL', 28.2);

###

Assay: Equilibrium solubility, saturation shake-flask, centrifugation as phase separation
Settings: Britton-Robinson buffer, pH 7.4, Equilibrium solubility S stir, pH 7.4; continuously stirred, no sedimentation; 10,000 rpm, 20 min
MEASURED PROPERTY: solubility thermodynamic at 24 h (mg/mL)

INSERT INTO measurements (molecular_string, recorded_measurement) VALUES
  ('CC(=O)[C@H]1CC[C@H]2[C@@H]3CCC4=CC(=O)CC[C@]4(C)[C@H]3CC[C@]12C', 0.0133);

###

Test: Equilibrium solubility, saturation shake-flask, centrifugation as phase separation
Conditions: Britton-Robinson buffer, pH 7.4, Equilibrium solubility S sed, pH 7.4; sedimented before centrifugation; 10,000 rpm, 5 min
MEASURED PROPERTY: solubility thermodynamic (µg/mL)

INSERT INTO assay_data (molecular_string, measured_property, recorded_measurement) VALUES
  ('CC(=O)[C@H]1CC[C@H]2[C@@H]3CCC4=CC(=O)CC[C@]4(C)[C@H]3CC[C@]12C', 'solubility thermodynamic', 11);
